Experiment: Cytotoxicity in non-infected cells
Format: cell-based, monkey
Settings: monkey, non-infected LLC-MK2 cells
Reported log10 of CC50 at 72 h values for the following compounds.
outcome measure: log10 of CC50 at 72 h (log10 of the value in µM)

# compound, outcome measure, value reported
records = [
    ("COc1cc(/C=C/C(=O)CC(=O)/C=C/c2ccc(O)c(OC)c2)ccc1O [CUR, reference compound]", "log10 of CC50 at 72 h", 1.51),
    ("O=C(/C=C/c1ccccc1)/C=C/c1ccccc1", "log10 of CC50 at 72 h", 1.22),
    ("O=C(Cn1ccnc1[N+](=O)[O-])NCc1ccccc1 [BZ, benznidazole, reference compound]", "log10 of CC50 at 72 h", 2.23),
    ("COc1cc(OC)c(/C=C/C(=O)/C=C/c2c(OC)cc(OC)cc2OC)c(OC)c1", "log10 of CC50 at 72 h", 1.70),
    ("O=C(/C=C/c1ccc(Cl)cc1)/C=C/c1ccc(Cl)cc1", "log10 of CC50 at 72 h", 1.58),
    ("COc1ccc(/C=C/C(=O)/C=C/c2ccc(OC)c(OC)c2)cc1OC", "log10 of CC50 at 72 h", 1.06),
    ("COc1ccc(/C=C/C(=O)/C=C/c2ccc(OC)cc2)cc1", "log10 of CC50 at 72 h", 1.50),
]

###

Test system: non-infected C2C12 cells
Assay: Cytotoxicity in non-infected cells
Assay type: cell-based, murine
Details: non-infected C2C12 CC50 / IC50 amastigotes CA-I/72 strain, 72 h

# compound, SI (CC50/IC50)
data = [
    ("COc1cc(OC)c(/C=C/C(=O)/C=C/c2c(OC)cc(OC)cc2OC)c(OC)c1", "> 10"),
    ("O=C(/C=C/c1ccccc1)/C=C/c1ccccc1", 8.59),
    ("COc1ccc(/C=C/C(=O)/C=C/c2ccc(OC)cc2)cc1", 2.03),
    ("COc1ccc(/C=C/C(=O)/C=C/c2ccc(OC)c(OC)c2)cc1OC", "> 10"),
    ("O=C(Cn1ccnc1[N+](=O)[O-])NCc1ccccc1 [BZ, benznidazole, reference compound]", 18.73),
    ("O=C(/C=C/c1ccc(Cl)cc1)/C=C/c1ccc(Cl)cc1", 1.13),
]

###

Tested on: trypomastigotes of T. cruzi (Sylvio X10/4 strain)
Assay: Trypanocidal activity against trypomastigotes
Type: cell-based
Conditions: Trypanosoma cruzi, 72 h, read-out: IC50 ± SD, trypomastigotes
Reported IC50 values for the following compounds.

# compound, rel, IC50 / µM
data = [
    ("O=C(Cn1ccnc1[N+](=O)[O-])NCc1ccccc1 [BZ, benznidazole, reference compound]", "=", 1.16),
    ("COc1cc(/C=C/C(=O)CC(=O)/C=C/c2ccc(O)c(OC)c2)ccc1O [CUR, reference compound]", "=", 9.89),
    ("O=C(/C=C/c1ccccc1)/C=C/c1ccccc1", "=", 41.2),
    ("COc1ccc(/C=C/C(=O)/C=C/c2ccc(OC)c(OC)c2)cc1OC", "=", 11.5),
    ("COc1cc(OC)c(/C=C/C(=O)/C=C/c2c(OC)cc(OC)cc2OC)c(OC)c1", ">", 100),
    ("COc1ccc(/C=C/C(=O)/C=C/c2ccc(OC)cc2)cc1", "=", 29.8),
    ("O=C(/C=C/c1ccc(Cl)cc1)/C=C/c1ccc(Cl)cc1", "=", 73.7),
]

###

Assay: Cytotoxicity in non-infected cells
Format: cell-based, murine
Conditions: mouse, non-infected C2C12 cells
Threshold 40 µM. CC50 at 72 h below it: Fulfilled. CC50 at 72 h at it or above: Not fulfilled.

# compound, label class
rows = [
    ("COc1ccc(/C=C/C(=O)/C=C/c2ccc(OC)c(OC)c2)cc1OC [DBA 3]", "Fulfilled"),
    ("COc1cc(OC)c(/C=C/C(=O)/C=C/c2c(OC)cc(OC)cc2OC)c(OC)c1 [DBA 4]", "Not fulfilled"),
    ("COc1cc(/C=C/C(=O)CC(=O)/C=C/c2ccc(O)c(OC)c2)ccc1O [CUR, reference compound]", "Fulfilled"),
    ("O=C(Cn1ccnc1[N+](=O)[O-])NCc1ccccc1 [BZ, benznidazole, reference compound]", "Fulfilled"),
    ("O=C(/C=C/c1ccc(Cl)cc1)/C=C/c1ccc(Cl)cc1 [DBA 5]", "Fulfilled"),
    ("COc1ccc(/C=C/C(=O)/C=C/c2ccc(OC)cc2)cc1 [DBA 2]", "Fulfilled"),
]

###

System: intracellular amastigotes of T. cruzi CA-I/72 strain
Assay: Time-course study against intracellular amastigotes
Format: cell-based
Conditions: Trypanosoma cruzi, 48 h, read-out: IC50 ± SD
pIC50: −log10 of the molar value.
Reported pIC50 values for the following compounds.

# compound, rel, pIC50
rows = [
    ("O=C(/C=C/c1ccccc1)/C=C/c1ccccc1 [DBA 1, (1E,4E)-1,5-diphenylpenta-1,4-dien-3-one]", "=", 4.84),
    ("COc1ccc(/C=C/C(=O)/C=C/c2ccc(OC)cc2)cc1 [DBA 2]", "<", 4.00),
    ("COc1ccc(/C=C/C(=O)/C=C/c2ccc(OC)c(OC)c2)cc1OC [DBA 3]", "=", 5.43),
    ("COc1cc(OC)c(/C=C/C(=O)/C=C/c2c(OC)cc(OC)cc2OC)c(OC)c1 [DBA 4]", "=", 4.46),
    ("O=C(Cn1ccnc1[N+](=O)[O-])NCc1ccccc1 [BZ, benznidazole, reference compound]", "=", 5.81),
    ("O=C(/C=C/c1ccc(Cl)cc1)/C=C/c1ccc(Cl)cc1 [DBA 5]", "<", 4.00),
    ("COc1cc(/C=C/C(=O)CC(=O)/C=C/c2ccc(O)c(OC)c2)ccc1O [CUR, reference compound]", "=", 5.65),
]

###

Test system: infected C2C12 cells
Assay: Cytotoxicity in infected C2C12 cells after 72 h
Type: cell-based, murine
Details: infected C2C12, Sylvio X10/4 strain, 72 h

# compound structure string, SI (CC50/IC50)
measured = [
    ("O=C(/C=C/c1ccc(Cl)cc1)/C=C/c1ccc(Cl)cc1", 0.20),
    ("O=C(/C=C/c1ccccc1)/C=C/c1ccccc1", 0.11),
    ("COc1ccc(/C=C/C(=O)/C=C/c2ccc(OC)cc2)cc1", 0.05),
    ("COc1ccc(/C=C/C(=O)/C=C/c2ccc(OC)c(OC)c2)cc1OC", 0.13),
]

###

Reported CC50 at 12 h values for the following compounds.
Test: Time-course cytotoxicity in infected C2C12 cells
Format: cell-based, murine
Details: mouse

# compound, output unit, CC50 at 12 h
records = [
    ("O=C(/C=C/c1ccccc1)/C=C/c1ccccc1", "µM", 2),
    ("COc1cc(OC)c(/C=C/C(=O)/C=C/c2c(OC)cc(OC)cc2OC)c(OC)c1", "µM", 60.4),
    ("O=C(Cn1ccnc1[N+](=O)[O-])NCc1ccccc1 [BZ, benznidazole, reference compound]", "µM", 3.98),
    ("COc1ccc(/C=C/C(=O)/C=C/c2ccc(OC)cc2)cc1", "µM", 3.03),
    ("O=C(/C=C/c1ccc(Cl)cc1)/C=C/c1ccc(Cl)cc1", "µM", 10.6),
    ("COc1cc(/C=C/C(=O)CC(=O)/C=C/c2ccc(O)c(OC)c2)ccc1O [CUR, reference compound]", "µM", 9.95),
    ("COc1ccc(/C=C/C(=O)/C=C/c2ccc(OC)c(OC)c2)cc1OC", "µM", 2.79),
]

###

Reported SI (CC50/IC50) values for the following compounds.
Tested on: C2C12 cells infected with intracellular amastigotes of T. cruzi (CA-I/72 strain)
Assay: Time-course cytotoxicity in infected C2C12 cells
Assay type: cell-based, murine
Conditions: infected C2C12 vs amastigotes CA-I/72, time-course, 48 h

# compound, SI (CC50/IC50)
rows = [
    ("O=C(/C=C/c1ccccc1)/C=C/c1ccccc1", 0.002),
    ("COc1ccc(/C=C/C(=O)/C=C/c2ccc(OC)c(OC)c2)cc1OC", 0.05),
    ("COc1cc(OC)c(/C=C/C(=O)/C=C/c2c(OC)cc(OC)cc2OC)c(OC)c1", 0.01),
    ("O=C(Cn1ccnc1[N+](=O)[O-])NCc1ccccc1 [BZ, benznidazole, reference compound]", 0.17),
]

###

Reported SI (CC50/IC50) values for the following molecules.
Tested on: infected C2C12 cells
Test: Cytotoxicity in infected C2C12 cells after 72 h
Format: cell-based, murine
Conditions: infected C2C12, Sylvio X10/7 strain, 72 h

# compound structure string, SI (CC50/IC50)
rows = [
    ("COc1cc(OC)c(/C=C/C(=O)/C=C/c2c(OC)cc(OC)cc2OC)c(OC)c1", 0.01),
    ("O=C(/C=C/c1ccccc1)/C=C/c1ccccc1", 0.28),
    ("O=C(/C=C/c1ccc(Cl)cc1)/C=C/c1ccc(Cl)cc1", 0.16),
    ("COc1ccc(/C=C/C(=O)/C=C/c2ccc(OC)c(OC)c2)cc1OC", 0.23),
    ("COc1ccc(/C=C/C(=O)/C=C/c2ccc(OC)cc2)cc1", 1.87),
]

Source of measurements: paper PMC8906099
